Source of measurements: patent US8263598B2

biological target: B1R receptor of rats (rB1R) (Rattus norvegicus); construct: host or cells: CHO K1 cells; experiment: FLIPR Ca2+ assay on rat bradykinin 1 receptor (CHO K1 rB1R cells); type: cell-based; conditions: test substance 10 μM; CHO K1 cells with B1R gene of rats; agonist Des-Arg9-bradykinin 100 nM; compared to maximum achievable inhibition

compound: COc1cc(C)c(S(=O)(=O)N(C)CCOCC(=O)N2CCn3cnnc3C2)c(C)c1 [Example 3]
assayed-target: B1R receptor of rats (rB1R) (Rattus norvegicus)
inhibition at 10 µM / %: 93
--
compound: COc1cc(C)c(S(=O)(=O)N(C)CCOCC(=O)N2CCn3ccnc3C2)c(C)c1 [Example 56]
assayed-target: B1R receptor of rats (rB1R) (Rattus norvegicus)
inhibition at 10 µM / %: 97
--
compound: COc1cc(C)c(S(=O)(=O)N(C)CCOCC(=O)N2CCn3c(CN4CCN(C)CC4)ccc3C2)c(C)c1 [Example 9]
assayed-target: B1R receptor of rats (rB1R) (Rattus norvegicus)
inhibition at 10 µM / %: 102
--
compound: COc1cc(C)c(S(=O)(=O)N(CCOCC(=O)N2CCn3c(CN(C)C)ccc3C2Cc2ccccc2)CC(C)C)c(C)c1C (stereo not shown) [Example 95]
assayed-target: B1R receptor of rats (rB1R) (Rattus norvegicus)
inhibition at 10 µM / %: 101
--
compound: COc1cc(C)c(S(=O)(=O)N(C)CCOCC(=O)N2CCn3cccc3C2c2cccnc2)c(C)c1 (stereo not shown) [Example 54]
assayed-target: B1R receptor of rats (rB1R) (Rattus norvegicus)
inhibition at 10 µM / %: 93
--
compound: COc1cc(C)c(S(=O)(=O)N(C)CCOCC(=O)N2CCn3cccc3C2c2ccc(C(C)(C)C)cc2)c(C)c1C (stereo not shown) [Example 90]
assayed-target: B1R receptor of rats (rB1R) (Rattus norvegicus)
inhibition at 10 µM / %: 66
--
compound: COc1cc(C)c(S(=O)(=O)N(CCOCC(=O)N2CCn3c(CN4CCOCC4)ccc3C2c2ccccc2)Cc2ccccc2)c(C)c1C (stereo not shown) [Example 117]
assayed-target: B1R receptor of rats (rB1R) (Rattus norvegicus)
inhibition at 10 µM / %: 88

---

biological target: human B1R receptor (hB1R) (Homo sapiens, UniProt P46663); construct: host or cells: CHO K1 cells; experiment: FLIPR Ca2+ assay on human bradykinin 1 receptor (CHO K1 hB1R cells); assay type: cell-based; conditions: test substance 10 μM; CHO K1 cells with human B1R gene; agonist Lys-Des-Arg9-bradykinin 0.5 nM; compared to maximum achievable inhibition
Sequence (P46663 whole entry): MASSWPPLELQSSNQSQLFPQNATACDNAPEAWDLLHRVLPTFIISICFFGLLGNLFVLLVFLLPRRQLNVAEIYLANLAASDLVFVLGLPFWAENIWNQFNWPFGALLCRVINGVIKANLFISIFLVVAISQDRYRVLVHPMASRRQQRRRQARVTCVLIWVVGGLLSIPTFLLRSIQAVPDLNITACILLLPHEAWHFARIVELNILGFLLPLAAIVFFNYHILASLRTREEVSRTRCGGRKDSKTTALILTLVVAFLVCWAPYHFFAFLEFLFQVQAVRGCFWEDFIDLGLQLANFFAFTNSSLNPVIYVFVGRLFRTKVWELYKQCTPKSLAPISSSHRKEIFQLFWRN
Listing: inhibition at 10 µM of selected molecules

molecule: COc1cc(C)c(S(=O)(=O)N(CCOCC(=O)N2CCn3cccc3C2c2cccs2)CC(C)C)c(C)c1C (stereo not shown)
unit-spec: %
inhibition at 10 µM: 55

molecule: CCCC1c2cccn2CCN1C(=O)COCCN(C)S(=O)(=O)c1cc(C)c(OC)c(C)c1C (stereo not shown)
unit-spec: %
inhibition at 10 µM: 91

molecule: COc1cc(C)c(S(=O)(=O)N(CCOCC(=O)N2CCn3c(CN(C)C)ccc3C2c2ccccc2)CC(C)C)c(C)c1C (stereo not shown)
unit-spec: %
inhibition at 10 µM: 103

molecule: COc1cc(C)c(S(=O)(=O)N(CCOCC(=O)N2CCn3cccc3C2c2ccccc2)Cc2ccccc2)c(C)c1 (stereo not shown)
unit-spec: %
inhibition at 10 µM: 54

---

Biological target: B1R receptor of rats (rB1R) (Rattus norvegicus, UniProt P97583)
Construct: host or cells: CHO K1 cells
Sequence (P97583 1-337): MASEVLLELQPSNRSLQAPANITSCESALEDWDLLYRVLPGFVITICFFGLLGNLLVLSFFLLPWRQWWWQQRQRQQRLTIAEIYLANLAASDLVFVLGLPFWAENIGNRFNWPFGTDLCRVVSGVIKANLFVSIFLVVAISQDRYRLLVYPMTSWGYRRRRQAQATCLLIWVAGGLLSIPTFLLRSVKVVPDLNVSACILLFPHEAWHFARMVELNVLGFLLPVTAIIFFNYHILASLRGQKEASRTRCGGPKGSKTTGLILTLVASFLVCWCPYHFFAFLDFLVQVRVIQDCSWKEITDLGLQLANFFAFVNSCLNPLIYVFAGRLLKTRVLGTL
Assay: FLIPR Ca2+ assay on rat bradykinin 1 receptor (CHO K1 rB1R cells)
Assay type: cell-based
Conditions: test substance 10 μM; CHO K1 cells with B1R gene of rats; agonist Des-Arg9-bradykinin 100 nM; compared to maximum achievable inhibition

compound: COc1cc(C)c(S(=O)(=O)N(CCOCC(=O)N2CCn3cccc3C2c2ccc(Cl)nc2)CC(C)C)c(C)c1C (stereo not drawn)
unit-spec: %
inhibition at 10 µM: 98
//
compound: COc1ccc(C2c3cccn3CCN2C(=O)COCCN(C)S(=O)(=O)c2c(C)cc(C)cc2C)cc1 (stereo not drawn)
unit-spec: %
inhibition at 10 µM: 100
//
compound: COc1c(C)cc(S(=O)(=O)N(C)CCOCC(=O)N2CCn3cccc3C2c2ccccc2)c(C)c1C (stereo not drawn)
unit-spec: %
inhibition at 10 µM: 99
//
compound: O=C(CC(NS(=O)(=O)c1ccc2ccccc2c1)c1ccccc1)N1CCn2c(CN3CCCC3)ccc2C1 (stereo not drawn)
unit-spec: %
inhibition at 10 µM: 42
//
compound: CCCC1c2cccn2CCN1C(=O)COCCN(C)S(=O)(=O)c1c(C)cc(C)cc1C (stereo not drawn)
unit-spec: %
inhibition at 10 µM: 102
//
compound: COc1cc(C)c(S(=O)(=O)N(C)CCOCC(=O)N2CCn3cccc3C2c2cccc(F)c2)c(C)c1C (stereo not drawn)
unit-spec: %
inhibition at 10 µM: 100
//
compound: COc1cc(C)c(S(=O)(=O)N(C)CCOCC(=O)N2CCn3c(CCc4ccncc4)ccc3C2)c(C)c1
unit-spec: %
inhibition at 10 µM: 97
//
compound: COc1cc(C)c(S(=O)(=O)N(C)CCOCC(=O)N2CCn3c(ccc3-c3ccncc3)C2)c(C)c1
unit-spec: %
inhibition at 10 µM: 97
//
compound: COc1cc(C)c(S(=O)(=O)N(C)CCOCC(=O)N2CCn3c(CN(C)C)ccc3C2c2ccccc2)c(C)c1C (stereo not drawn)
unit-spec: %
inhibition at 10 µM: 58
//
compound: COc1cc(C)c(S(=O)(=O)N(CCOCC(=O)N2CCn3ccnc3C2)CC(C)C)c(C)c1C
unit-spec: %
inhibition at 10 µM: 100
//
compound: Cc1cc(C)c(S(=O)(=O)N(C)CCOCC(=O)N2CCn3cccc3C2c2ccc(C)c(C)c2)c(C)c1 (stereo not drawn)
unit-spec: %
inhibition at 10 µM: 71
//
compound: Cc1cc(C)c(S(=O)(=O)N(C)CCOCC(=O)N2CCn3cccc3C2c2ccc(Cl)nc2)c(C)c1 (stereo not drawn)
unit-spec: %
inhibition at 10 µM: 100
//
compound: Cc1cc(C)c(S(=O)(=O)N(C)CCOCC(=O)N2CCn3cccc3C2c2cccnc2)c(C)c1 (stereo not drawn)
unit-spec: %
inhibition at 10 µM: 100
//
compound: O=C(CC(NS(=O)(=O)c1ccc2ccccc2c1)c1ccccc1)N1CCn2c(CN3CCOCC3)ccc2C1 (stereo not drawn)
unit-spec: %
inhibition at 10 µM: 100
//
compound: Cc1cc(C)c(S(=O)(=O)N(C)CCOCC(=O)N2CCn3cccc3C2C(C)(C)C)c(C)c1 (stereo not drawn)
unit-spec: %
inhibition at 10 µM: 99
//
compound: COc1cc(C)c(S(=O)(=O)N(C)CCOCC(=O)N2CCn3c(nc(CN4CCCCC4)c3Cl)C2)c(C)c1
unit-spec: %
inhibition at 10 µM: 99
//
compound: COc1cc(C)c(S(=O)(=O)N(C)CCOCC(=O)N2CCn3c(CN(C)C)ccc3C2c2ccccc2)c(C)c1 (stereo not drawn)
unit-spec: %
inhibition at 10 µM: 100
//
compound: COc1cc(C)c(S(=O)(=O)N(C)CCOCC(=O)N2CCn3c(CCc4cccnc4)ccc3C2)c(C)c1
unit-spec: %
inhibition at 10 µM: 98
//
compound: COc1cc(C)c(S(=O)(=O)N(CCOCC(=O)N2CCn3c(CN(C)C)ccc3C2c2ccccc2)Cc2ccccc2)c(C)c1 (stereo not drawn)
unit-spec: %
inhibition at 10 µM: 102
//
compound: COc1cc(C)c(S(=O)(=O)N(CCOCC(=O)N2CCn3ccnc3C2)Cc2ccccc2)c(C)c1
unit-spec: %
inhibition at 10 µM: 96
//
compound: COc1cc(C)c(S(=O)(=O)N(C)CCOCC(=O)N2CCn3cccc3C2C(C)C)c(C)c1 (stereo not drawn)
unit-spec: %
inhibition at 10 µM: 102
//
compound: COc1c(C)cc(S(=O)(=O)N(C)CCOCC(=O)N2CCn3cccc3C2c2ccc(F)c(F)c2)c(C)c1C (stereo not drawn)
unit-spec: %
inhibition at 10 µM: 66
//
compound: Cc1cc(C)c(S(=O)(=O)N(C)CCOCC(=O)N2CCn3c(CN(C)C)ccc3C2c2ccccc2)c(C)c1 (stereo not drawn)
unit-spec: %
inhibition at 10 µM: 103
//
compound: CCC1c2cccn2CCN1C(=O)COCCN(C)S(=O)(=O)c1cc(C)c(OC)c(C)c1C (stereo not drawn)
unit-spec: %
inhibition at 10 µM: 42
//
compound: O=C(CC(NS(=O)(=O)c1ccc2ccccc2c1)c1ccccc1)N1CCn2c(CCc3ccncc3)ccc2C1 (stereo not drawn)
unit-spec: %
inhibition at 10 µM: 75
//
compound: Cc1cc(C)c(S(=O)(=O)N(C)CCOCC(=O)N2CCn3cccc3C2c2cccc(C(F)(F)F)c2)c(C)c1 (stereo not drawn)
unit-spec: %
inhibition at 10 µM: 48
//
compound: CCC1c2cccn2CCN1C(=O)COCCN(Cc1ccccc1)S(=O)(=O)c1c(C)cc(OC)cc1C (stereo not drawn)
unit-spec: %
inhibition at 10 µM: 102
//
compound: COc1c(C)cc(S(=O)(=O)N(C)CCOCC(=O)N2CCn3c(CN4CCCCC4)ccc3C2c2ccccc2)c(C)c1C (stereo not drawn)
unit-spec: %
inhibition at 10 µM: 102
//
compound: CCC1c2cccn2CCN1C(=O)COCCN(C)S(=O)(=O)c1c(C)cc(OC)c(C)c1C (stereo not drawn)
unit-spec: %
inhibition at 10 µM: 102
//
compound: O=C(CC(NS(=O)(=O)c1ccc2ccccc2c1)c1ccccc1)N1CCn2c(Cc3ccncc3)ccc2C1 (stereo not drawn)
unit-spec: %
inhibition at 10 µM: 98
